Data origin, for the record: patent US5723579A

Please respond with reported 2% Acetic Acid Eluate, A280 for every item in the list.
- ASSAYED SYSTEM: fibrinogen (Homo sapiens, UniProt P02671+P02675+P02679)
- Construct: purchased Sigma Chemical Co. (St. Louis, Mo.) and Chromogenix AB (Molndal, Sweden)
- Sequence (P02671 20-644 isoform P02671-2 limits assumed): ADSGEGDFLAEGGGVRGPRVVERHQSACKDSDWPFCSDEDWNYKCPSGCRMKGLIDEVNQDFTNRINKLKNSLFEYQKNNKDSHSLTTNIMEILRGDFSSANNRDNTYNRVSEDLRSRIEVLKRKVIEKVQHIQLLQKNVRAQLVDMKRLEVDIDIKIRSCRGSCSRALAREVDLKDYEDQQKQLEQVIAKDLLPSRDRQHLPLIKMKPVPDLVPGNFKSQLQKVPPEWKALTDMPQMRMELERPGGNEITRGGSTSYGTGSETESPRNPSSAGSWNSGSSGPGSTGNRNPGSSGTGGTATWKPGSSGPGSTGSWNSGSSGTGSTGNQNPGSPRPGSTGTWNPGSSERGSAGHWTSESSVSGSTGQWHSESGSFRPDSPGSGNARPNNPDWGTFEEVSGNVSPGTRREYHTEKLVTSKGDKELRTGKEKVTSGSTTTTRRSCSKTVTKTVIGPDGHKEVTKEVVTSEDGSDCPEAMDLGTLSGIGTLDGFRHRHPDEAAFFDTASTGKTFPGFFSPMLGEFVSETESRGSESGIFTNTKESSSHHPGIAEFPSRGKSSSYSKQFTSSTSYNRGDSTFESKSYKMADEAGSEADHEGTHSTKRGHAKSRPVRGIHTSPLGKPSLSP
- Sequence (P02675 31-491): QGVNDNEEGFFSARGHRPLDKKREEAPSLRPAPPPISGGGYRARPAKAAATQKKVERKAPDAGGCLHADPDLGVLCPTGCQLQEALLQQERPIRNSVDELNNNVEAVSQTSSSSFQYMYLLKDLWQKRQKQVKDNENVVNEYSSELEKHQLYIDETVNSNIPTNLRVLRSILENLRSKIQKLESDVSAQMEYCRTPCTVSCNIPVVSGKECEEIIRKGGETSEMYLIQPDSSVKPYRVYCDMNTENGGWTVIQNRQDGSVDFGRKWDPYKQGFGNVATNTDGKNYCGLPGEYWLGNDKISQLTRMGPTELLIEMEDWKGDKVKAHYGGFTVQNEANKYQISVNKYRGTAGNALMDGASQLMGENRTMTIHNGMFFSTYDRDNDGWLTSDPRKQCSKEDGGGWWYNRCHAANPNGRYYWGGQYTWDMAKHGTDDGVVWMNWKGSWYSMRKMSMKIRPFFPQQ
- Sequence (P02679 27-453): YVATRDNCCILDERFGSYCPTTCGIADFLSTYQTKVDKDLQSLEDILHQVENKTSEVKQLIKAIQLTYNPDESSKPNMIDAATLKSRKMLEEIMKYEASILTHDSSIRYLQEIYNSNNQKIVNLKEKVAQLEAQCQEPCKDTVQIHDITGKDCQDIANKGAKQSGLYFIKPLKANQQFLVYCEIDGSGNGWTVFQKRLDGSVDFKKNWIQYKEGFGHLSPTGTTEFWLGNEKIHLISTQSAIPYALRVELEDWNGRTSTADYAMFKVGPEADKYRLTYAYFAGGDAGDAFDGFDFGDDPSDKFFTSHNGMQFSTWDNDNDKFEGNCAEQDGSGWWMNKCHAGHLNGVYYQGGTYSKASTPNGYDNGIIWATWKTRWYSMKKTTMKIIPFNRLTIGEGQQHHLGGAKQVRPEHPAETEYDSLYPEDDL
- ASSAY OVERVIEW: Confirmatory binding assay in column chromatographic format: fibrinogen applied to peptide resins, NaCl wash and acid eluate quantified by A280
- CONDITION SET: 1000 μg fibrinogen applied; peptide synthesized on A-Totda-Toyopearl; Table 2
No end group written: not given here.
Lab note: write the figure by itself, no unit.

Using the record for ALLVPL: peptide sequence ALLVPL synthesized on A-Totda-Toyopearl (not fully specified (C-terminus)) , state its measured 2% Acetic Acid Eluate, A280.
0.12

In one line, give reported 2% Acetic Acid Eluate, A280 of the entry Phe-Ala-Leu-Val- Pro-Leu (FALVPL; not fully specified (C-terminus); printed as Phe-Ala-Leu-Val-Pro-Leu) .
2.78

Dear colleague, please send me the reported 2% Acetic Acid Eluate, A280 for PALVPL: peptide sequence PALVPL synthesized on A-Totda-Toyopearl (not fully specified (C-terminus)) when you can.
0.13

Provide 2% Acetic Acid Eluate, A280 value for the following substance: AALVPL: peptide sequence AALVPL synthesized on A-Totda-Toyopearl (not fully specified (C-terminus))
0.12
